All figures here come from paper PMC7822874.

Tested on: Plasmodium falciparum Dd2-attB-ScDHODH (transgenic line expressing yeast DHODH), asexual blood stages
Construct: Dd2-attB-ScDHODH, the transgenic line that expresses yeast DHODH
Experiment: organism not typed
Parameters: replicate k of 3 (each line is one of three independent assays; the three lines of one compound and parasite line follow each other)
Conditions: 72 h, n = 1
PROPERTY: Individual replicates / Log AC50 (M)

Individual replicates / Log AC50 (M) reading for CCOC(=O)c1ccc(O)c2ncc(N3CCNCC3)cc12 : -5.3486 Log AC50 (M)

Individual replicates / Log AC50 (M) reading for CC(C)c1c(-c2cnn(C(C)(C)C)c2)[nH]c2c(C#N)cnn2c1=O [NCGC00488278-02] : -4.7986 Log AC50 (M)

Individual replicates / Log AC50 (M) reading for COC(=O)c1ccc(O)c2ncc(N3CC[C@H](N)C3)cc12 : -4.7486 Log AC50 (M)

Individual replicates / Log AC50 (M) reading for O=C(O)c1c2ccc(C(=O)N3CCOCC3)cc2n2ccccc12 : -5.5986 Log AC50 (M)

Individual replicates / Log AC50 (M) reading for Oc1ccc(CNc2cc(C(F)(F)F)ccn2)c2cccnc12 : -4.8486 Log AC50 (M)

Individual replicates / Log AC50 (M) reading for Cc1nn2c(c1-c1ccccc1-c1ccccc1)N(Cc1ccc(C(=O)O)s1)CCC2 : -4.7486 Log AC50 (M)

Individual replicates / Log AC50 (M) reading for O=C(CC[S+](=O)([O-])c1nc(-c2cccs2)cc(C(F)(F)F)n1)Nc1ccc(OC(F)(F)F)cc1 : -4.8486 Log AC50 (M)

Individual replicates / Log AC50 (M) reading for O=C(NCCC12CCCN1CCC2)c1cccc(-c2cc(O)c3ncccc3c2)c1 : -4.6986 Log AC50 (M)

Individual replicates / Log AC50 (M) reading for CCOc1ccc(-c2[nH]c3c(C#N)cnn3c2NC2CCCC2)cc1 : -4.8486 Log AC50 (M)

Individual replicates / Log AC50 (M) reading for CN1CCN(C(=O)c2ccc(-c3cnc4c(O)ccc(C(=O)O)c4c3)cc2)CC1 : -4.7486 Log AC50 (M)

Individual replicates / Log AC50 (M) reading for CCOC(=O)c1ccc(O)c2ncc(NCC3CCCN(CCc4ccccc4)C3)cc12 (centres unmarked) : -5.0986 Log AC50 (M)

Individual replicates / Log AC50 (M) reading for Oc1ccc(Nc2ccccc2F)c2cccnc12 : -5.5986 Log AC50 (M)

Individual replicates / Log AC50 (M) reading for CN(C)C(=S)SN(C)C(=O)Nc1ccccc1 : -5.7986 Log AC50 (M)

Individual replicates / Log AC50 (M) reading for Cc1ccnc(NCc2ccc(O)c3ncccc23)c1 : -5.0486 Log AC50 (M)

Individual replicates / Log AC50 (M) reading for CC(C)c1c(-c2cnn(C(C)(C)C)c2)[nH]c2c(C#N)cnn2c1=O [NCGC00488278-03] : -4.8986 Log AC50 (M)

Individual replicates / Log AC50 (M) reading for Oc1cc(NCc2ccccc2)cc2cccnc12 : -5.2486 Log AC50 (M)

Individual replicates / Log AC50 (M) reading for CC1CN(c2cnc3c(O)ccc(C(=O)O)c3c2)CCN1Cc1ccccc1 (centres unmarked) : -4.7986 Log AC50 (M)

Individual replicates / Log AC50 (M) reading for O=C(NCc1cccnc1)c1cccc(-c2cc(O)c3ncccc3c2)c1 : -4.8486 Log AC50 (M)

Individual replicates / Log AC50 (M) reading for Oc1ccc(NCc2ccccc2F)c2cccnc12 : -5.0986 Log AC50 (M)

Individual replicates / Log AC50 (M) reading for CCCCN1CCCc2cc(CN(CCCN3CCOCC3)C(=O)Nc3ccc(CC)cc3)ccc21 : -5.0486 Log AC50 (M)

====

Test system: Plasmodium falciparum Dd2-attB (parental line), asexual blood stages
Construct: Dd2-attB, the isogenic parental line
Experiment: microbe, parasite or virus in culture
Parameters: replicate k of 3 (each line is one of three independent assays; the three lines of one compound and parasite line follow each other)
Settings: 72 h; n = 1
Field: Individual replicates / Log AC50 (M). Provide a value for each of the compounds that follow.

Individual replicates / Log AC50 (M) reading for CN(C)c1cnc2c(O)ccc([S+](=O)([O-])Nc3ccccc3F)c2c1 [NCGC00189501-01] : -5.0986 Log AC50 (M)

Individual replicates / Log AC50 (M) reading for CN(C)[S+](=O)([O-])c1cccc(-c2cc(O)c3ncccc3c2)c1 [NCGC00247754-01] : -5.2986 Log AC50 (M)

Individual replicates / Log AC50 (M) reading for CN(C)c1cnc2c(O)ccc(C(=O)O)c2c1 [NCGC00189499-01] : -4.7486 Log AC50 (M)

Individual replicates / Log AC50 (M) reading for Cc1cccc(CN2CCCn3nc(C)c(-c4ccccc4Oc4ccccc4)c32)n1 [NCGC00499720-01] : -4.7486 Log AC50 (M)

Individual replicates / Log AC50 (M) reading for C/C(=N\NC(=S)N1CCN(c2ccccn2)CC1)c1ccccn1 [NCGC00386445-01] : -5.3486 Log AC50 (M)

Individual replicates / Log AC50 (M) reading for CCCCOC(=O)c1ccnc2cc(C(=O)N(CCN(C)C)c3ccccc3)sc12 [NCGC00481684-01] : -4.7986 Log AC50 (M)

Individual replicates / Log AC50 (M) reading for CN(C)c1ccc(-c2nc(-c3ccccc3O)n(Cc3ccccc3)n2)cc1 [NCGC00388637-01] : -6.0986 Log AC50 (M)

Individual replicates / Log AC50 (M) reading for O=C(O)c1ccc(O)c2ncc(N3CCCN(CCc4cccc5ccccc45)CC3)cc12 [NCGC00247751-02] : -5.1486 Log AC50 (M)

Individual replicates / Log AC50 (M) reading for Cc1cccc2nc(-c3ccccn3)c(Nc3ccc(F)cc3)n12 [NCGC00106061-03] : -5.2986 Log AC50 (M)

Individual replicates / Log AC50 (M) reading for CCOC(=O)CCNc1cc(N2CCc3ccccc3CC2)nc(-c2cccnc2)n1 [NCGC00351550-01] : -4.8986 Log AC50 (M)

Individual replicates / Log AC50 (M) reading for O=C(O)c1ccc(N(CCN2CCC(F)(F)CC2)c2ccc(F)cc2)cn1 [NCGC00390011-01] : -4.7486 Log AC50 (M)

Individual replicates / Log AC50 (M) reading for O=C(O)c1ccc(O)c2ncc(NCC3CCCN(CCc4ccccc4)C3)cc12 (stereo not drawn) [NCGC00241759-01] : -5.0486 Log AC50 (M)

Individual replicates / Log AC50 (M) reading for Cc1ccc(C(CCN2CCCCC2)c2cc3cccc(C(N)=O)c3[nH]2)cc1 (stereo not drawn) [NCGC00389183-01] : -5.2486 Log AC50 (M)

Individual replicates / Log AC50 (M) reading for Oc1ccc(CNc2ccccc2Cl)c2cccnc12 [NCGC00184891-01] : -4.6986 Log AC50 (M)

Individual replicates / Log AC50 (M) reading for O=C1C(c2ccc(C(F)(F)F)cc2)=C(Nc2ccc(Cl)cc2)c2ccccc21 [NCGC00107304-01] : -6.0986 Log AC50 (M)

====

System: P. berghei-ANKA-GFP-LucCON liver stage parasites in HepG2-A16-CD81EGFP cells
Experiment: P. berghei liver stage Pb-Luc assay, Method 1 (UCSD, 1536-well)
Assay type: cell-based, Plasmodium berghei
Conditions: P. berghei liver stage; the header list (r8) defines it as the 1 µM dose, averaged response (percent)
Threshold check on Average P. berghei 1 µM response (%): at or above 70% gives condition met, strictly below gives condition not met.

Incoming: Assess whether reported Average P. berghei 1 µM response (%) for COc1ccc(N2CCN(c3cc(C4CC(N)C4)nc(N)n3)CC2(C)C)cc1 (stereo not drawn) sits at 70% or higher.
Outgoing: condition met

Incoming: Assess whether reported Average P. berghei 1 µM response (%) for Cc1nn2c(c1-c1ccccc1-c1ccccc1)N(Cc1ccc(O)cc1)CCC2 sits at 70% or higher.
Outgoing: condition met

Incoming: Assess whether reported Average P. berghei 1 µM response (%) for COc1cc(C)cc(CN2CCC(Cc3ccccc3)CC2)c1O sits at 70% or higher.
Outgoing: condition met

Incoming: Assess whether reported Average P. berghei 1 µM response (%) for N=c1n(N)c2ccccc2n1CC(=O)c1ccc(Br)cc1 sits at 70% or higher.
Outgoing: condition met

Incoming: Assess whether reported Average P. berghei 1 µM response (%) for O=C1C(Nc2ccccc2)=C/C(=N\S(=O)(=O)c2cccs2)c2ccccc21 sits at 70% or higher.
Outgoing: condition not met

Incoming: Assess whether reported Average P. berghei 1 µM response (%) for N=c1c2c(n(Cc3ccccc3)c3c1CCC3)CCC2 sits at 70% or higher.
Outgoing: condition not met

Incoming: Assess whether reported Average P. berghei 1 µM response (%) for Oc1cc2c(cc1CN1CCN(c3ccccc3)CC1)CCC2 sits at 70% or higher.
Outgoing: condition met

Incoming: Assess whether reported Average P. berghei 1 µM response (%) for CCOCCCNc1nc2cc(OC)c(OC)cc2c2nc(-c3ccccc3)nn12 sits at 70% or higher.
Outgoing: condition met

Incoming: Assess whether reported Average P. berghei 1 µM response (%) for CCCN(CCC)CCNC(=O)c1cc2c(-c3ccc(Cl)cc3)nn(C)c2s1 sits at 70% or higher.
Outgoing: condition not met

Incoming: Assess whether reported Average P. berghei 1 µM response (%) for COc1ccc(-[n+]2c(-c3ccc(Br)cc3)cn3c2CCc2ccccc2-3)cc1.[Br-] sits at 70% or higher.
Outgoing: condition not met

Incoming: Assess whether reported Average P. berghei 1 µM response (%) for CCN1CCN(C(=O)c2ccc3c(c2)N(Cc2ccccc2F)C(=O)c2ccccc2[S+]3[O-])CC1 (stereo not drawn) sits at 70% or higher.
Outgoing: condition met

Incoming: Assess whether reported Average P. berghei 1 µM response (%) for CCCCCC(=O)O[C@]1(C(C)=O)CC[C@H]2[C@@H]3CCC4=CC(=O)CC[C@]4(C)[C@H]3CC[C@@]21C sits at 70% or higher.
Outgoing: condition met

Incoming: Assess whether reported Average P. berghei 1 µM response (%) for N=c1n(CCN2CCCCC2)c2ccccc2n1CC(=O)c1ccc(Cl)c(Cl)c1 sits at 70% or higher.
Outgoing: condition met

Incoming: Assess whether reported Average P. berghei 1 µM response (%) for O=C(Nc1c(C(=O)c2ccccc2)oc2ccccc12)c1cc(-c2ccccc2O)n[nH]1 sits at 70% or higher.
Outgoing: condition met

Incoming: Assess whether reported Average P. berghei 1 µM response (%) for CN1CCC(NCCC(c2ccc(F)cc2)c2ccc(Cl)cc2)CC1 (stereo not drawn) sits at 70% or higher.
Outgoing: condition met

Incoming: Assess whether reported Average P. berghei 1 µM response (%) for CCCCn1c2c(c(=N)c3c1CCC3)CCC2 sits at 70% or higher.
Outgoing: condition not met
